FYI, the data here is from patent US20150218257A1.

- test-system: HIV-1 JR-CSF(Y318A) Env on pseudovirus (HIV-1 isolate JR-CSF) (UniProt P20871)
- method-notes: cell-based or functional assay
reported-metric: IC50 (ug/ml), pseudovirus neutralisation, TZM-bl assay

So for 1503_H05 (PG16) antibody, sister clone of 1443_C16 (antibody, V domains shown) VH: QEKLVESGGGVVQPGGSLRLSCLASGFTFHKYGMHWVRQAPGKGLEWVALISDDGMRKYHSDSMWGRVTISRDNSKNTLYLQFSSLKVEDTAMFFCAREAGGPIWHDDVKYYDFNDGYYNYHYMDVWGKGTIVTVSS VL: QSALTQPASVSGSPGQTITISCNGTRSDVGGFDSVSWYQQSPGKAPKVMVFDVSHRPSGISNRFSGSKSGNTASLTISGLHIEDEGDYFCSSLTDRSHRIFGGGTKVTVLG , the logged IC50 (ug/ml), pseudovirus neutralisation, TZM-bl assay turned out to be > 1 µg/mL
